Tested on: KRAS PDC multicell spheroid viability
test.summary: Anticancer human tumor 521955-158-R6-J3-PDC patient-derived pancreatic carcinoma cell line growth inhibition [KRAS2]
stated.conditions: second compound 1 µM; first compound 0.0316 µM; stronger effect = lower value

compound	unit.tag	viability, T/C
CC1COCCN1c1cc(-c2ccnn2C)c2ccnc(-c3ccn[nH]3)c2n1 (stereo unspecified) + COc1cc2nc(C)nc(NC(C)c3cc(N)cc(C(F)(F)F)c3)c2cc1OC1CCOC1	%	78.2
CC(C)n1nc(-c2ccc3oc(N)nc3c2)c2c(N)ncnc21 + CNCc1ccccc1-c1csc(C(C)Nc2nc(C)nc3cc(OC)c(OC)cc23)c1	%	54.6
CC1(C)CCC(CN2CCN(c3ccc(C(=O)NS(=O)(=O)c4ccc(NCC5CCOCC5)c([N+](=O)[O-])c4)c(Oc4cnc5[nH]ccc5c4)c3)CC2)=C(c2ccc(Cl)cc2)C1 + C=CC(=O)N1CCN(c2nc(=O)n(-c3c(C)ccnc3C(C)C)c3nc(-c4c(O)cccc4F)c(F)cc23)C(C)C1	%	111
CC(=O)Nc1cccc(-n2c(=O)n(C3CC3)c(=O)c3c(Nc4ccc(I)cc4F)n(C)c(=O)c(C)c32)c1 + C=CC(=O)N1CCN(c2nc(=O)n(-c3c(C)ccnc3C(C)C)c3nc(-c4c(O)cccc4F)c(F)cc23)C(C)C1	%	51
COc1cc(Nc2ncc3c(n2)-c2ccc(Cl)cc2C(c2c(F)cccc2OC)=NC3)ccc1C(=O)O + CNCc1ccccc1-c1csc(C(C)Nc2nc(C)nc3cc(OC)c(OC)cc23)c1	%	93.6
COc1cc2nccc(Oc3ccc(NC(=O)C4(C(=O)Nc5ccc(F)cc5)CC4)cc3)c2cc1OC + C=CC(=O)N1CCN(c2nc(=O)n(-c3c(C)ccnc3C(C)C)c3nc(-c4c(O)cccc4F)c(F)cc23)C(C)C1	%	89.8

###

Tested on: KRAS PDC multicell spheroid viability
test.summary: Anticancer human tumor 521955-158-R6-J3-PDC cell line growth inhibition [KRAS2];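 further: drug exposure lasted seven days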;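 on viability, T/C: 100% = DMSO vehicle wells and lower means fewer viable cells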
stated.conditions: second compound 3.16 µM; first compound 0.01 µM; stronger effect = lower value
# binning rule on viability, T/C: bin 1 = under 30%, bin 2 = from 30% up to 70%, bin 3 = 70% and over

compound	label.value
CN(C)C/C=C/C(=O)Nc1cc2c(Nc3ccc(F)c(Cl)c3)ncnc2cc1O[C@H]1CCOC1 + CNCc1ccccc1-c1csc(C(C)Nc2nc(C)nc3cc(OC)c(OC)cc23)c1	bin 1
CC(=O)OC12COC1CC(O)C1(C)C(=O)C(O)C3=C(C)C(OC(=O)C(O)C(NC(=O)OC(C)(C)C)c4ccccc4)CC(O)(C(OC(=O)c4ccccc4)C21)C3(C)C (stereo not given) + CC1OCC2(CCN(c3cnc(Sc4ccnc(N)c4Cl)c(N)n3)CC2)C1N	bin 3
Cn1ncnc1[C@H]1c2n[nH]c(=O)c3cc(F)cc(c23)N[C@@H]1c1ccc(F)cc1 + C=CC(=O)N1CCN(c2nc(OCC3CCCN3C)nc3c2CCN(c2cccc4cccc(C)c24)C3)CC1CC#N	bin 2
CC(C)n1nc(-c2ccc3oc(N)nc3c2)c2c(N)ncnc21 + COc1cc2nc(C)nc(NC(C)c3cc(N)cc(C(F)(F)F)c3)c2cc1OC1CCOC1	bin 2
CC1COCCN1c1cc(-c2ccnn2C)c2ccnc(-c3ccn[nH]3)c2n1 (stereo not given) + CNCc1ccccc1-c1csc(C(C)Nc2nc(C)nc3cc(OC)c(OC)cc23)c1	bin 1
CC(=O)OC12COC1CC(O)C1(C)C(=O)C(O)C3=C(C)C(OC(=O)C(O)C(NC(=O)OC(C)(C)C)c4ccccc4)CC(O)(C(OC(=O)c4ccccc4)C21)C3(C)C (stereo not given) + C=CC(=O)N1CCN(c2nc(=O)n(-c3c(C)ccnc3C(C)C)c3nc(-c4c(O)cccc4F)c(F)cc23)C(C)C1	bin 3
CC(C)n1nc(-c2ccc3oc(N)nc3c2)c2c(N)ncnc21 + C=CC(=O)N1CCN(c2nc(OCC3CCCN3C)nc3c2CCN(c2cccc4cccc(C)c24)C3)CC1CC#N	bin 1
CCN1CCN(Cc2ccc(Nc3ncc(F)c(-c4cc(F)c5nc(C)n(C(C)C)c5c4)n3)nc2)CC1 + C=CC(=O)N1CCN(c2nc(OCC3CCCN3C)nc3c2CCN(c2cccc4cccc(C)c24)C3)CC1CC#N	bin 1
CC(=O)Nc1cccc(-n2c(=O)n(C3CC3)c(=O)c3c(Nc4ccc(I)cc4F)n(C)c(=O)c(C)c32)c1 + C=CC(=O)N1CCN(c2nc(OCC3CCCN3C)nc3c2CCN(c2cccc4cccc(C)c24)C3)CC1CC#N	bin 1
CC1COCCN1c1cc(-c2ccnn2C)c2ccnc(-c3ccn[nH]3)c2n1 (stereo not given) + C=CC(=O)N1CCN(c2nc(OCC3CCCN3C)nc3c2CCN(c2cccc4cccc(C)c24)C3)CC1CC#N	bin 2
CCN1CCN(Cc2ccc(Nc3ncc(F)c(-c4cc(F)c5nc(C)n(C(C)C)c5c4)n3)nc2)CC1 + COc1cc2nc(C)nc(NC(C)c3cc(N)cc(C(F)(F)F)c3)c2cc1OC1CCOC1	bin 3
Cn1ncnc1[C@H]1c2n[nH]c(=O)c3cc(F)cc(c23)N[C@@H]1c1ccc(F)cc1 + C=CC(=O)N1CCN(c2nc(=O)n(-c3c(C)ccnc3C(C)C)c3nc(-c4c(O)cccc4F)c(F)cc23)C(C)C1	bin 3
CC1COCCN1c1cc(-c2ccnn2C)c2ccnc(-c3ccn[nH]3)c2n1 (stereo not given) + C=CC(=O)N1CCN(c2nc(=O)n(-c3c(C)ccnc3C(C)C)c3nc(-c4c(O)cccc4F)c(F)cc23)C(C)C1	bin 3
Cn1ncnc1[C@H]1c2n[nH]c(=O)c3cc(F)cc(c23)N[C@@H]1c1ccc(F)cc1 + COc1cc2nc(C)nc(NC(C)c3cc(N)cc(C(F)(F)F)c3)c2cc1OC1CCOC1	bin 3
CCN1CCN(Cc2ccc(Nc3ncc(F)c(-c4cc(F)c5nc(C)n(C(C)C)c5c4)n3)nc2)CC1 + CNCc1ccccc1-c1csc(C(C)Nc2nc(C)nc3cc(OC)c(OC)cc23)c1	bin 1
CC(=O)OC12COC1CC(O)C1(C)C(=O)C(O)C3=C(C)C(OC(=O)C(O)C(NC(=O)OC(C)(C)C)c4ccccc4)CC(O)(C(OC(=O)c4ccccc4)C21)C3(C)C (stereo not given) + COc1cc2nc(C)nc(NC(C)c3cc(N)cc(C(F)(F)F)c3)c2cc1OC1CCOC1	bin 2
CC(C)n1nc(-c2ccc3oc(N)nc3c2)c2c(N)ncnc21 + CNCc1ccccc1-c1csc(C(C)Nc2nc(C)nc3cc(OC)c(OC)cc23)c1	bin 1

###

System: KRAS PDC multicell spheroid viability
test.summary: Anticancer human tumor 521955-158-R6-J3-PDC cell line growth inhibition [KRAS2];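 further: drug exposure lasted seven days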;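 on viability, T/C: 100% = DMSO vehicle wells and lower means fewer viable cells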
stated.conditions: second compound 1 µM; first compound 0.0316 µM; stronger effect = lower value
Measured viability, T/C of individual entries
result.type: viability, T/C (%)

compound	assay.result
COC(=O)c1ccc2c(C(=Nc3ccc(N(C)C(=O)CN4CCN(C)CC4)cc3)c3ccccc3)c(O)[nH]c2c1 + CC1OCC2(CCN(c3cnc(Sc4ccnc(N)c4Cl)c(N)n3)CC2)C1N	106
CC(C)NCC(C(=O)N1CCN(c2ncnc3c2C(C)CC3O)CC1)c1ccc(Cl)cc1 (stereo not drawn) + C=CC(=O)N1CCN(c2nc(=O)n(-c3c(C)ccnc3C(C)C)c3nc(-c4c(O)cccc4F)c(F)cc23)C(C)C1	93.5
CC(C)n1nc(-c2ccc3oc(N)nc3c2)c2c(N)ncnc21 + COc1cc2nc(C)nc(NC(C)c3cc(N)cc(C(F)(F)F)c3)c2cc1OC1CCOC1	63

###

Tested on: KRAS PDC multicell spheroid viability
test.summary: Anticancer human tumor 521955-158-R6-J3-PDC cell line growth inhibition [KRAS2];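 further: drug exposure lasted seven days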
stated.conditions: curve of first compound; second compound 10 µM
result.type: IC50 (µM)

compound	result.type	op	assay.result
COc1cc(Nc2ncc3c(n2)-c2ccc(Cl)cc2C(c2c(F)cccc2OC)=NC3)ccc1C(=O)O + CC1OCC2(CCN(c3cnc(Sc4ccnc(N)c4Cl)c(N)n3)CC2)C1N	IC50	>	10
CN(C)C/C=C/C(=O)Nc1cc2c(Nc3ccc(F)c(Cl)c3)ncnc2cc1O[C@H]1CCOC1 + CC1OCC2(CCN(c3cnc(Sc4ccnc(N)c4Cl)c(N)n3)CC2)C1N	IC50	>	0.1
CCN1CCN(Cc2ccc(Nc3ncc(F)c(-c4cc(F)c5nc(C)n(C(C)C)c5c4)n3)nc2)CC1 + COc1cc2nc(C)nc(NC(C)c3cc(N)cc(C(F)(F)F)c3)c2cc1OC1CCOC1	IC50	<	0.00316
CC1(C)CCC(CN2CCN(c3ccc(C(=O)NS(=O)(=O)c4ccc(NCC5CCOCC5)c([N+](=O)[O-])c4)c(Oc4cnc5[nH]ccc5c4)c3)CC2)=C(c2ccc(Cl)cc2)C1 + C=CC(=O)N1CCN(c2nc(=O)n(-c3c(C)ccnc3C(C)C)c3nc(-c4c(O)cccc4F)c(F)cc23)C(C)C1	IC50	=	2.96
CCNC(=O)CC1N=C(c2ccc(Cl)cc2)c2cc(OC)ccc2-n2c(C)nnc21 (stereo not given) + CC1OCC2(CCN(c3cnc(Sc4ccnc(N)c4Cl)c(N)n3)CC2)C1N	IC50	=	1.07
